Form field: normalized growth (one value per entry).
protocol.text: chemical genetic growth profiling, strain panel (AID 1159580);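 note: tested at 20 µM; growth read once vehicle control cultures reached saturation at 30 °C; 1 = growth at the plate median or of vehicle wells; lower values mean less growth of the strain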
measurement.conditions: S. cerevisiae deletion strains, growth OD, locus YLR418C, strain cdc73, stronger effect = lower value
Among all 5,500 compounds or so, about 2,000 (36%) were called active. Another 18% or so got no clear call; they are omitted. The list shows a part of the results.
Answer field: number only, no words.

Reference set (5 entries):
CO[C@@]1(NC(=O)Cc2cccs2)C(=O)N2C(C(=O)O)=C(COC(N)=O)CS[C@@H]21 : 0.988
NC1CC1c1ccccc1 (stereo unspecified) : 0.992
O=C1c2ccccc2C(=O)C1c1ccccc1 : 0.98
COc1cc(NS(=O)(=O)c2ccc(N)cc2)ncn1 : 0.983
CN1C(=O)CCS(=O)(=O)C1c1ccc(Cl)cc1 (stereo unspecified) : 1.02

The recorded normalized growth for COc1ccc2c(c1)[C@]13CCCC[C@H]1[C@H](C2)N(C)CC3 is 0.957
